Each entry below carries its reported inhibition.
System under test: ATP-dependent translocase ABCB1 (Homo sapiens)
Test method notes: blockers of ABCB1-mediated dye efflux – cell-based, multiplex, flow cytometry, ABCG2 counter-screen, primary screen (AID 1326);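 further: 0% = vehicle and 100% = reference inhibitor; higher value means more JC-1 retained so stronger ABCB1 efflux block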
Measurement setup: CCRF-Adr cells, JC-1 efflux, at 6.6 µM, stronger effect = higher value
About 130 (0.068%) of roughly 190,000 compounds were called active. The full list was thinned out, with actives kept by preference.

Consider the reported inhibition for these compounds:
Compound	Observed result
C=CCn1c(SCC(=O)c2ccc(Br)cc2)nnc1C(C)NC(=O)Cc1ccc(OC)cc1 (stereo not given)	1.19% (inactive)
COCCCNC(NC(=O)c1ccc(OC)cc1)C(Cl)(Cl)Cl (stereo not given)	0.77% (inactive)
O=C(N/N=C/c1sc(N2CCCCC2)nc1-c1cccs1)c1cccnc1	-0.08% (inactive)
C=CCn1c(SCc2ccc(Cl)c(Cl)c2)nnc1C(CO)NC(=O)c1ccc(OC)cc1 (stereo not given)	1.4% (inactive)

Query: Can you look up inhibition on ATP-dependent translocase ABCB1 (Homo sapiens) for CCC(C)(C)NC(=O)CN(C(=O)C(=O)Nc1ccc2c(c1)OCCO2)C(C)(C)CC ?
Reply: 2.48% (inactive)
